Measured Parameter: melting point

compound=O=C(Cn1cnnn1)N1CCNCC1 value_measured="143 to 145 °C"
compound="O=C(CCl)N1c2ccccc2SCC1c1ccccc1 (stereo not drawn)" value_measured="162 to 164 °C"

[in] // returns reported melting point for input O=C(CCl)NC(=O)NC1CCS(=O)(=O)C1 (stereo not drawn)
[out] 173 to 175 °C

###

Measured Parameter: melting point

entry_smiles=Cc1cc(C(=O)O)cc(S(=O)(=O)Cl)c1Cl value_measured="209 to 211 °C"

[in] // returns reported melting point for input `Clc1cncc(OCc2ccccc2)n1`
[out] 47 to 49 °C

[in] // returns reported melting point for input `O=[N+]([O-])c1cc(S(=O)(=O)Nc2ccc(Br)cc2)ccc1Cl`
[out] 123 to 125 °C

[in] // returns reported melting point for input `COc1ccc(S(=O)(=O)N2CCCCC2)cc1N`
[out] 137 to 139 °C

[in] // returns reported melting point for input `N#Cc1cccc(NN)c1`
[out] 104 to 106 °C

[in] // returns reported melting point for input `CCOc1ccc2c(c1)C=C(C(=O)O)CO2`
[out] 186 to 188 °C

###

Measured melting point accompanies every entry in the list below.

A selection of reference data follows.
entry_smiles=COc1cc(F)c([N+](=O)[O-])cc1OC value_measured="139 to 141 °C"
entry_smiles=Cc1cnc(NC(=O)c2ccc(Br)o2)s1 value_measured="190 to 192 °C"
entry_smiles=Cc1cc([N+](=O)[O-])ccc1S(N)(=O)=O value_measured="155 to 157 °C"

Now, please, on to the next molecule.
[in] // returns reported melting point for input `CN1CCC(n2nccc2N)CC1`
[out] 98 to 100 °C

###

Measured Parameter: melting point

A selection of reference data follows.
compound=Nc1nncc(-c2ccc(F)cc2)n1 measured_parameter="melting point" value_measured="248 to 250 °C"
compound=C=CCn1c(S)nc2ccccc21 measured_parameter="melting point" value_measured="109 to 111 °C"
compound=NCc1ccc(-c2ccn[nH]2)cc1 measured_parameter="melting point" value_measured="141 to 143 °C"
compound=CC(C)Oc1ccc(C(=O)O)cn1 measured_parameter="melting point" value_measured="122 to 124 °C"
compound=CS(=O)(=O)OCCn1cc(C#N)cn1 measured_parameter="melting point" value_measured="64 to 66 °C"

[in] // returns reported melting point for input `c1cn2c(n1)CN(C1CCNCC1)CC2`
[out] 63 to 65 °C

[in] // returns reported melting point for input `CNS(=O)(=O)c1ccc(CN)cc1`
[out] 111 to 113 °C

###

Measured Parameter: melting point

[in] // returns reported melting point for input `Cc1cc(C(=O)CCl)c(C)n1-c1ccccn1`
[out] 76 to 78 °C

[in] // returns reported melting point for input `Cc1nc(S)c2c(=O)n(C)c(=O)n(CC(C)C)c2n1`
[out] 172 to 174 °C

[in] // returns reported melting point for input `O=C1CCCN1c1ccc(Cl)c([N+](=O)[O-])c1`
[out] 137 to 139 °C

[in] // returns reported melting point for input `Cc1nc(-c2ccccn2)nc(O)c1C`
[out] 145 to 147 °C

[in] // returns reported melting point for input `O=C1CCc2cc(C(=O)CCl)ccc2N1`
[out] 212 to 214 °C

[in] // returns reported melting point for input Cc1cccc(OC(C)C(=O)NN)c1C (centres undefined)
[out] 140 to 144 °C

[in] // returns reported melting point for input `Nc1nc2c(s1)CCc1ccccc1-2`
[out] 58 to 66 °C

[in] // returns reported melting point for input `O=C(O)CNC(=O)c1ccoc1`
[out] 165 to 167 °C

[in] // returns reported melting point for input O=C1CCCCC1c1ccc(C(F)(F)F)cc1 (centres undefined)
[out] 96 to 98 °C
